Tested on: Fusarium graminearum
Assay: Fungicidal activity against Fusarium graminearum at 50 ug/ml by growth inhibition method
Assay type: functional
Design: scale not given: the % may be the effect or the level left
Mark each entry true (1) if its Activity sits below 20%, and false (0) for all others.

Report whether reported Activity is lower than 20% (strictly) for Cc1ccc(N(C(=O)c2snnc2C)C(C(=O)NC2CCCCC2)c2ccccc2)cc1F (stereo not drawn) false (0)

***
Report whether reported Activity is lower than 20% (strictly) for Cc1ccc(N(C(=O)c2snnc2C)C(C(=O)NC2CCCCC2)c2cccc(F)c2)cc1F (stereo not drawn) false (0)

* * *

Test system: Tobacco mosaic virus
Assay: In vivo antiviral activity against Tobacco mosaic virus (TMV) infected tobacco leaves assessed as curative effect at 100 ug/ml treated after viral inoculation measured at 2-3 days after viral challenge
Assay type: functional
What Activity was measured for each of the following?
One number for each entry, in %.

Each compound below has a reported value. Please supply its Activity.
1. Cc1ccc(N(C(=O)c2snnc2C)C(C(=O)NC2CCCCC2)c2ccccc2)cc1F (centres undefined)
2. Cc1ccc(N(C(=O)c2snnc2C)C(C(=O)NC2CCCCC2)c2ccccc2C(F)(F)F)cc1F (centres undefined)

[47, 13]

* * *

Tested on: Tobacco mosaic virus
Experiment: In vivo antiviral activity against Tobacco mosaic virus (TMV) infected tobacco leaves assessed as curative effect at 500 ug/ml treated after viral inoculation measured at 2-3 days after viral challenge
Type: functional
Mark each entry Yes if its Activity sits below 50%, and No for all others.

Report whether reported Activity is lower than 50% (strictly) for NC(=O)c1ncn([C@@H]2O[C@H](CO)[C@@H](O)[C@H]2O)n1 Yes

Continue with Cc1ccc(N(C(=O)c2snnc2C)C(C(=O)NC2CCCCC2)c2ccccc2)cc1F (centres undefined) No

Continue with Cc1ccc(N(C(=O)c2snnc2C)C(C(=O)NC2CCCCC2)c2cccc([N+](=O)[O-])c2)cc1F (centres undefined) No

Continue with Cc1ccc(NC(=O)c2snnc2C)cc1Cl Yes

Continue with Cc1ccc(N(C(=O)c2snnc2C)C(C(=O)NC2CCCCC2)c2ccccc2C(F)(F)F)cc1F (centres undefined) Yes

Continue with Cc1ccc(N(C(=O)c2snnc2C)C(C(=O)NC2CCCCC2)c2cccc(C(F)(F)F)c2)cc1F (centres undefined) Yes

Continue with Cc1ccc(N(C(=O)c2snnc2C)C(C(=O)NC2CCCCC2)c2ccc(O)cc2)cc1F (centres undefined) Yes

Continue with Cc1ccc(N(C(=O)c2snnc2C)C(C(=O)NC2CCCCC2)c2ccccc2C)cc1F (centres undefined) Yes

Continue with Cc1ccc(N(C(=O)c2snnc2C)C(C(=O)NC2CCCCC2)c2ccc([N+](=O)[O-])cc2)cc1F (centres undefined) No

* * *

What Activity was measured for each of the following?
Tested on: Alternaria solani
Assay: Fungicidal activity against Alternaria solani at 50 ug/ml by growth inhibition method
Type: functional
Design: scale not given: the % may be the effect or the level left
Answers are plain numbers, in %.

Each molecule below has a reported value. Please supply its Activity.
1. Cc1ccc(N(C(=O)c2snnc2C)C(C(=O)NC2CCCCC2)c2ccc(O)cc2)cc1Cl (stereo not given)
2. Cc1ccc(N(C(=O)c2snnc2C)C(C(=O)NC2CCCCC2)c2cccc([N+](=O)[O-])c2)cc1F (stereo not given)
3. Cc1ccc(N(C(=O)c2snnc2C)C(C(=O)NC2CCCCC2)c2cccc(C(F)(F)F)c2)cc1Cl (stereo not given)
4. Cc1ccc(N(C(=O)c2snnc2C)C(C(=O)NC2CCCCC2)c2cccc(C(F)(F)F)c2)cc1F (stereo not given)

[50, 0, 32, 100]
